Biological target: Tyrosine-protein phosphatase non-receptor type substrate 1 (Homo sapiens) + Leukocyte surface antigen CD47 (Homo sapiens) (UniProt P78324+Q08722)
Sequence (P78324 whole entry, looked up): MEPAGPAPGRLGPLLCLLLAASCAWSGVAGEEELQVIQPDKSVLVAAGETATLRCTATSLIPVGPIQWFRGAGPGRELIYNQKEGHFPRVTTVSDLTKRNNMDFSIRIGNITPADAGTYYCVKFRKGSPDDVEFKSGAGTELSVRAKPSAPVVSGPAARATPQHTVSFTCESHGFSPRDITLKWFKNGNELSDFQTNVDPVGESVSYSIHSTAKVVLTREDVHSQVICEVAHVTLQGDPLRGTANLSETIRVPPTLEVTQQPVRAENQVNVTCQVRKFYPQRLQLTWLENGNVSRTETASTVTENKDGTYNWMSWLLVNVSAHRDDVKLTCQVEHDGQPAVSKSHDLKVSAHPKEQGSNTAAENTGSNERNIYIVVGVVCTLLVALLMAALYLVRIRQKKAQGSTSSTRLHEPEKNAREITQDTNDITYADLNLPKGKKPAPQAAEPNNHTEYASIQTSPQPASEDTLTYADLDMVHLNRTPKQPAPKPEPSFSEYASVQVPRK
Sequence (Q08722 whole entry, looked up): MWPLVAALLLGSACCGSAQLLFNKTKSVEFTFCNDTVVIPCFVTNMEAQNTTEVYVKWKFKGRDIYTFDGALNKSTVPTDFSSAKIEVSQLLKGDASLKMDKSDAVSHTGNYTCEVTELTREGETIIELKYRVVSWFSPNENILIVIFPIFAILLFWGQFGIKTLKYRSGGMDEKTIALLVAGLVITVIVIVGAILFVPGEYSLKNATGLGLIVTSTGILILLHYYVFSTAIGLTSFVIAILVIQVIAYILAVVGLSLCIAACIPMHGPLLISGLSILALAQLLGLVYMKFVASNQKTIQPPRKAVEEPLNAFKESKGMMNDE
Test: CD47-SIRPalpha protein protein interaction - Alpha assay qHTS validation (AID 1347059);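 note: bead proximity luminescence from CD47 binding SIRPalpha after compound preincubation with SIRPalpha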
Conditions: AlphaScreen CD47-His/biotin-SIRPalpha binding, LOPAC; series mostly up to 38.3 µM
Inconclusive results are not listed. Activity calls are given as the source filed them. Calls come from the whole dose curve; as a rule, active = well fitted inhibition curve with a large enough effect; inconclusive = small, poorly fitted or top-dose-only effect; inactive = flat fitted curve, though single readings scatter.
Test readout: outcome

Recorded outcome, per entry:
{"Query smiles": "CC(C)NC[C@H](O)c1ccc(O)c(O)c1", "outcome": "inactive"}
{"Query smiles": "C#CCN(C)Cc1ccccc1", "outcome": "inactive"}
{"Query smiles": "C[C@]12CC[C@@H]3c4ccc(O)cc4CC[C@H]3[C@@H]1CCC2=O", "outcome": "inactive"}
{"Query smiles": "CC1=C(/C=C/C(C)=C/C=C/C(C)=C/C(=O)O)C(C)(C)CCC1", "outcome": "inactive"}
{"Query smiles": "CC(C)(C)[C@]1(O)CCN2C[C@H]3c4ccccc4CCc4cccc(c43)[C@@H]2C1", "outcome": "inactive"}

Below are 4 compounds. Give each one its outcome.
1. Cc1c(O)cccc1C(=O)N[C@@H](CSc1ccccc1)[C@H](O)CN1C[C@H]2CCCC[C@H]2C[C@H]1C(=O)NC(C)(C)C
2. CC(=O)OCC(=O)[C@@]1(O)CC[C@H]2[C@@H]3CCC4=CC(=O)CC[C@]4(C)[C@H]3C(=O)C[C@@]21C
3. N=c1c[n+](N2CCOCC2)[n-]o1
4. CN(C)CCCN1c2ccccc2CCc2ccccc21

Marked response:
1: inactive; 2: inactive; 3: inactive; 4: inactive

Answer for every listed entry: what is its outcome? The entries follow.
1. CCCCc1ncc(/C=C(\Cc2cccs2)C(=O)O)n1Cc1ccc(C(=O)O)cc1
2. CN1CCC[C@@H]1Cc1c[nH]c2ccc(CCS(=O)(=O)c3ccccc3)cc12
3. Nc1ncnc2c1ncn2[C@@H]1O[C@H](CO)[C@@H](O)[C@H]1O
4. C[C@]12C[C@H](O)[C@H]3[C@@H](CCC4=CC(=O)CC[C@@]43C)[C@@H]1CC[C@@H]2C(=O)CO

Marked response:
inactive
inactive
inactive
inactive
